Reported max response is given for each of the following molecules.
# Tested on: KB-3-1
# assay.remarks: Cytotoxic Profiling of Annotated Libraries Using Quantitative High-Throughput Screening (AID 1296008); note: % is set by controls: 0 for no effect and ±100 for the full control effect; nearly all actives have a fitted effect of over 60% in size
# recorded.conditions: Five cell lines viability, CellTiter-Glo ATP luminescence, 48-72 h; active compounds read low
Results filed as inconclusive are left out. Active and inactive are the calls of the source. Calls come from the whole dose curve; as a rule, active = well fitted inhibition curve with a large enough effect; inconclusive = small, poorly fitted or top-dose-only effect; inactive = flat fitted curve, though single readings scatter.

Below, each entry is followed by its recorded max response result.
molecule="O=C1C(=O)c2ccccc2C(O)=C1C1CCC(c2ccc(Cl)cc2)CC1 (stereo not drawn)" test_system=KB-3-1 reported_measurement="-5.6% (inactive)"
molecule=O=[N+]([O-])c1ccc(/C=N\O)o1 test_system=KB-3-1 reported_measurement="-13.1% (inactive)"
molecule=CCCCN=C(N)N=C(N)N test_system=KB-3-1 reported_measurement="1.99% (inactive)"
molecule=NS(=O)(=O)Cc1noc2ccccc12 test_system=KB-3-1 reported_measurement="2.97% (inactive)"

Per the records, this molecule ( `Nc1ccc(S(=O)(=O)Nc2cnc3ccccc3n2)cc1` ) has max response equal to -10.8% (inactive)

Per the records, this molecule ( `CN(C)CCC[C@@]1(c2ccc(F)cc2)OCc2cc(C#N)ccc21` ) has max response equal to -13.4% (inactive)

Per the records, this molecule ( O=C1OC(CN2CCOCC2)CN1/N=C/c1ccc([N+](=O)[O-])o1 (stereo not drawn) ) has max response equal to 2.54% (inactive)

Per the records, this molecule ( `CCNC(=O)NCc1cccc(Cl)c1` ) has max response equal to 2.4% (inactive)

Per the records, this molecule ( `CCNC(=O)/C=C/c1cccc(Br)c1` ) has max response equal to -0.104% (inactive)

Per the records, this molecule ( `CCOc1ccc(NC(C)=O)cc1` ) has max response equal to 8.88% (inactive)

Per the records, this molecule ( `CCOc1ccccc1C(N)=O` ) has max response equal to -15.7% (inactive)

Per the records, this molecule ( NC1CCN(c2nc3c(cc2F)c(=O)c(C(=O)O)cn3-c2ccc(F)cc2F)C1 (stereo not drawn) ) has max response equal to 1.57% (inactive)

Per the records, this molecule ( `O=C(NC1CCN(CCc2c[nH]c3ccccc23)CC1)c1ccccc1` ) has max response equal to -0.418% (inactive)

Origin of the recorded values: PubChem BioAssay (NCATS)
